tested on: SN12C renal; test: NCI-60 one-dose screen, 48 h; conditions: 10 µM unless noted
The panel holds about 83,000 compounds, 20% with a hit somewhere; the sample as a whole holds those more often. The source made the active and inactive calls. How the source made its calls: active means growth percent below 10; inactive means the rest.
Permitted responses: active, inactive

Which result was noted for this molecule in the test: CCOC(=O)C1=C(C)N=c2s/c(=C\c3ccccc3O)c(=O)n2C1c1ccc(OC)c2ccccc12 (stereo not given) inactive

Try O=C(/C=C/c1ccccc1)c1ccc(Nc2nc(NCCO)nc(Nc3ccc(Cl)cc3)n2)cc1 next. inactive

Try CCOc1c(Br)cc(C2C(C(=O)OC)=CN(C)C=C2C(=O)OC)cc1OC next. inactive

Try O=C1c2ccccc2C(=O)c2c1ccc1[nH]c(CCl)nc21 next. active

Try Nc1n[nH]c2ccc([C@@H]3Nc4ccc5[nH]ncc5c4[C@H]4[C@H]5CCC(C5)[C@H]43)cc12 next. inactive

Try COc1ccc(C2=C(c3cccc(OC)c3)C(=O)c3ccc(C)nc3C2=O)cc1 next. inactive

Try Brc1ccc(Oc2ccc(Nc3ncnc4onc(-c5ccccc5)c34)cc2)cc1 next. inactive

Try CCOC(=O)C1=CN(C)C=C(C(=O)OCC)C1c1cc(Br)c(OCC)c(OC)c1 next. inactive

Try COc1ccc(-c2cc(=O)c3c(OC)c4ccoc4c(/C=C/C=O)c3o2)cc1 next. inactive

Try COc1ccccc1C(=O)O/N=C(\N)Cc1cccc2ccccc12 next. inactive

Try O=C(CCc1nnc2sc(-c3ccc(Cl)cc3Cl)nn12)c1nc2ncccc2[nH]1 next. active

Try NCCOc1ncccc1/C=C1\c2ccccc2-c2ccc([N+](=O)[O-])cc21 next. active

Try CN(C)CCCNCc1ccc(-c2ccc(F)c(Cl)c2)o1 next. inactive

Try O=C(CN1C(=O)/C(=C\c2ccc(Cl)cc2)SC1=S)Nc1ncc(Cc2ccc(Cl)cc2)s1 next. inactive

Try COc1ccc(Cn2c(Br)c3c(c2-c2cc(OC)c(OC)c(OC)c2)CCc2sc(NC(=O)c4ccc(OC)cc4)nc2-3)cc1 next. inactive

Try Cc1ccc2nc(NC(=O)CSC(=S)N3CCN(c4ccccc4)CC3)sc2c1 next. inactive

Try COC(=O)[C@H](NC(=O)C1(C)CCC[C@]2(C)[C@H]3C[C@H]4C(C(C)C)=C[C@]3(CC[C@@H]12)[C@@H]1C(=O)CCC(=O)[C@@H]14)C(C)C (stereo not given in full) next. inactive

Try COc1ccc(Cn2c(Br)c3c(c2-c2cc(OC)c(OC)c(OC)c2)CCc2sc(NC(C)=O)nc2-3)cc1 next. inactive

Try CSc1nc2c(c(=O)n1C)N=C1c3ccccc3C(=O)C1C(c1ccccc1)N2 (stereo not given) next. inactive

Try CC(C)CCOc1ccc(-c2n[nH]c(C(F)(F)F)c2-c2cncc(C#N)c2)c(O)c1 next. active

Try COc1cc(/C=C2\CCC/C(=C\c3cc(CN4CCOCC4)c(O)c(OC)c3)C2=O)cc(CN2CCOCC2)c1O next. inactive

Try Cc1ccc(C(=O)c2oc3ccc4c(C)cc(=O)oc4c3c2C)cc1 next. inactive

Try O=C(Nc1ccc(Br)cc1F)c1cc(I)ccc1O next. active

Try Brc1ccc(Nc2nc3ccccc3nc2Nc2ccc(Br)cc2)cc1 next. active

Try Nc1no[n+]([O-])c1-c1nnc2c(n1)-c1ccccc1C2=O next. inactive

Try COc1cc(/C=C2\Oc3cc(OCCCN4CCCC4)ccc3C2=O)cc(OC)c1 next. inactive

Try CCOC(=O)C1(C(=O)OCC)N=C(c2ccccc2)C=C1c1ccccc1 next. inactive

Try COc1cc(/C=C/C(=O)c2c(C)nc3ccccc3c2/C=C/c2ccccc2)cc(OC)c1OC next. inactive

Try CCN1C(=O)N(CC)C2Nn3c(s/c(=C\c4ccccc4F)c3=O)=NC21 (stereo not given) next. inactive

Try O=c1oc2ccc(Cl)cc2c(=O)n1-c1ccc(F)cc1F next. active
